Source: patent US20060241051A1

Molecular target: T1, human OT7T175 (metastin receptor) (human, UniProt Q969F8 1-398)
T1 construct: expressed on CHO cells (hOT7T175-expressed CHO cells; hOT7T175/CHO); also called hOT7T175; h0T7T175
T1 sequence (Q969F8 whole entry L364H): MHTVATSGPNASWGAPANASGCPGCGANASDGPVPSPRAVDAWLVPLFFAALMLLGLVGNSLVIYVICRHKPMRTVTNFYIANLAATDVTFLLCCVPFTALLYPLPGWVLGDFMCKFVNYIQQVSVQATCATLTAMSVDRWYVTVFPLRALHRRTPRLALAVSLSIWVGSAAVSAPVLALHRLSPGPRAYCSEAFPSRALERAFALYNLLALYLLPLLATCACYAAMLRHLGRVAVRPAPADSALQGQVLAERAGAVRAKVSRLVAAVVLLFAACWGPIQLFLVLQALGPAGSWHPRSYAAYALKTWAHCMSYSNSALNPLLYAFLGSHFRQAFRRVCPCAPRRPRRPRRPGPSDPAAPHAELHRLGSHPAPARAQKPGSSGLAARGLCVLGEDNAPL
Test: FMAT competition with Cy-5-labeled metastin (40-54), hOT7T175-expressed CHO cells
Square brackets hold non-standard residues; d marks the D form. Ends that are not written are not given here. Arg(Me) = CNC(=N)NCCC[C@H](N)C(=O)O; azaGly = NNC(=O)O
measure name: pIC50
pIC50 is a log-scale quantity: -log10 of the concentration expressed in molar.

binder | experimental result
[dY]NVNSF[azaGly]L[Arg(Me)]F-NH2 (N-terminus assumed; SMILES CNC(=N)NCCC[C@H](NC(=O)[C@H](CC(C)C)NC(=O)NNC(=O)[C@H](Cc1ccccc1)NC(=O)[C@H](CO)NC(=O)[C@H](CC(N)=O)NC(=O)[C@@H](NC(=O)[C@H](CC(N)=O)NC(=O)[C@H](N)Cc1ccc(O)cc1)C(C)C)C(=O)N[C@@H](Cc1ccccc1)C(N)=O) [Compound No. 234: [D-Tyr1,Val3,AzaGly7,Arg(Me)9]MS10] | 7.33

I would be grateful if you could share the reported pIC50 for {n‑Hexanoyl}-NSF[azaGly]L[Arg(Me)]F-NH2 [Compound No. 277: des(1-3)-n-Hexanoyl-[AzaGly7,Arg(Me)9]MS10] .
7.27
